Biological target: DCN1 (Homo sapiens (Human), UniProt Q96GG9)
Sequence (Q96GG9 58-259): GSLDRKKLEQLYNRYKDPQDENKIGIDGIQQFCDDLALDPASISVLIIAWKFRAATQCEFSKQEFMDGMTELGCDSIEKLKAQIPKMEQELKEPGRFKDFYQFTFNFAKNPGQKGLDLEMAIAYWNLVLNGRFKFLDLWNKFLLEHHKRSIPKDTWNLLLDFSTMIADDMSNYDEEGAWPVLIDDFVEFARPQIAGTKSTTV
Test: Competitive FP binding assay
Settings: read-out: Binding affinity to DCN1 (IC50 (nM))
Square brackets hold non-standard residues; d marks the D form. Peptide text beside a SMILES is read from it. * marks the point of attachment. Ala(6-iPr-benzothiazol-2-yl) = CC(C)c1ccc2nc(C[C@H](N)C(=O)O)sc2c1; Moc = COC(=O)*
Property: IC50 (nM)
Hi! Could you send only the number? It should be in nM, unit omitted.

Compound | Target Under Test | IC50 (nM)
CCC(=O)N[C@@H](Cc1nc2ccccc2s1)C(=O)N[C@H](C(=O)N[C@@H](CCCCN)C(=O)NC(c1ccccc1)c1ccccc1)C1CCCC1 | DCN1 (Homo sapiens (Human), UniProt Q96GG9) | 397
CCC(=O)N[C@@H](Cc1nc2ccc(Cl)cc2s1)C(=O)N[C@H](CN)Cc1ccccc1 | DCN1 (Homo sapiens (Human), UniProt Q96GG9) | 491
CC[C@H](C)[C@H](NC(=O)[C@H](Cc1nc2ccc(C(C)C)cc2s1)NC(C)=O)C(=O)N[C@@H](CCCCN)C(=O)N[C@@H](CC(C)C)C(N)=O [Example 5] (Ac-[Ala(6-iPr-benzothiazol-2-yl)]IKL-NH2) | DCN1 (Homo sapiens (Human), UniProt Q96GG9) | 40.1
CCC(=O)N[C@@H](Cc1nc2ccc(C)cc2s1)C(=O)N[C@H](C(=O)N[C@@H](CC1CCNCC1)C(=O)N[C@@H]1CCOc2ccccc21)C1CCOCC1 | DCN1 (Homo sapiens (Human), UniProt Q96GG9) | 187

Lookup: Given the entry CC[C@H](C)[C@H](NC(=O)[C@H](Cc1nc2ccc(C(C)C)cc2s1)NC(C)=O)C(=O)N[C@@H](CCCCN)C(N)=O , report its measured IC50.
Found: 632

Lookup: If you can, please state the reported IC50 value of CC[C@H](C)[C@H](NC(=O)[C@H](Cc1nc2ccc(C(C)C)cc2s1)NC(=O)OC)C(=O)N[C@@H](CCCCN)C(=O)N[C@@H](CC(C)C)C(N)=O [Example 279] (Moc-[Ala(6-iPr-benzothiazol-2-yl)]IKL-NH2) .
Found: 217
